Tested on: penicillin-G acylase
RUN_DESCRIPTION: Hydrolysis half life using immobilized penicillin-G acylase
Assay type: ADME
CONDITION_SUMMARY: immobilized penicillin-G acylase
MEASUREMENT_TYPE: half-life (min)

// worked examples, half-life included
>  <COMPOUND>
CC1=C(C(=O)O)N2C(=O)[C@@H](NC(=O)COc3ccccc3)[C@H]2SC1

>  <MEASUREMENT_TYPE>
half-life

>  <UNIT_LABEL>
min

>  <MEAS_VALUE>
1280

$$$$
>  <COMPOUND>
CC1=C(C(=O)O)N2C(=O)[C@@H](NC(=O)C(O)c3ccccc3)[C@H]2SC1 (stereo not given in full)

>  <MEASUREMENT_TYPE>
half-life

>  <UNIT_LABEL>
min

>  <MEAS_VALUE>
5

$$$$
>  <COMPOUND>
CC1(C)[C@H](C(=O)O)N2C(=O)[C@@H](NC(=O)Cc3ccccc3)[C@H]2[S+]1[O-] (stereo not given in full)

>  <MEASUREMENT_TYPE>
half-life

>  <UNIT_LABEL>
min

>  <MEAS_VALUE>
90

$$$$
>  <COMPOUND>
CCC(C(=O)N[C@@H]1C(=O)N2[C@@H]1SC(C)(C)[C@@H]2C(=O)O)c1ccccc1 (stereo not given in full)

>  <MEASUREMENT_TYPE>
half-life

>  <UNIT_LABEL>
min

>  <MEAS_VALUE>
3400

$$$$
>  <COMPOUND>
Cn1nnnc1SCC1=C(C(=O)O)N2C(=O)[C@@H](NC(=O)Cc3ccccc3)[C@H]2SC1

>  <MEASUREMENT_TYPE>
half-life

>  <UNIT_LABEL>
min

>  <MEAS_VALUE>
50

$$$$
>  <COMPOUND>
CC1=C(C(=O)O)N2C(=O)[C@@H](NC(=O)C(Br)c3ccccc3)[C@H]2[S+]([O-])C1 (stereo not given in full)

>  <MEASUREMENT_TYPE>
half-life

>  <UNIT_LABEL>
min

>  <MEAS_VALUE>
370

$$$$
>  <COMPOUND>
O=C(Cc1ccccc1)N[C@@H]1C(=O)N2C(C(=O)O)=CCS[C@H]12

>  <MEASUREMENT_TYPE>
half-life

>  <UNIT_LABEL>
min

>  <MEAS_VALUE>
25

$$$$
>  <COMPOUND>
CC1=C(C(=O)O)N2C(=O)[C@@H](NC(=O)Cc3ccccc3)[C@H]2SC1

>  <MEASUREMENT_TYPE>
half-life

>  <UNIT_LABEL>
min

>  <MEAS_VALUE>
45

$$$$

(I) CC1=C(C(=O)O)N2C(=O)[C@@H](NC(=O)COc3ccccc3)[C@H]2[S+]([O-])C1 (stereo not given in full)
(II) CC1(C)S[C@@H]2[C@H](NC(=O)[C@H](N)c3ccc(O)cc3)C(=O)N2[C@H]1C(=O)O [AMOXICILLIN]
Given the listed records, identify the one among I and II with higher half-life. Could you answer with the label of the item you picked? I
(I: 1420 min, II: 12 min)

(I) CC1=C(C(=O)O)N2C(=O)[C@@H](NC(=O)Cc3ccsc3)[C@H]2SC1
(II) CC1(C)S[C@@H]2[C@H](NC(=O)Cc3ccccc3)C(=O)N2[C@H]1C(=O)O [PENICILLIN G]
Given the listed records, identify the one among I and II with higher half-life. Could you answer with the label of the item you picked? I

(1) C=CC1=C(C(=O)O)N2C(=O)[C@@H](NC(=O)Cc3ccccc3)[C@H]2SC1
(2) CC1(C)S[C@@H]2[C@H](NC(=O)C(Cc3ccccc3)c3ccccc3)C(=O)N2[C@H]1C(=O)O (stereo not given in full)
Select one. Lower half-life: 1 or 2 Could you answer with the label of the item you picked? 1

(a) CC1(C)S[C@@H]2[C@H](NC(=O)C(Br)c3ccccc3)C(=O)N2[C@H]1C(=O)O (stereo not given in full)
(b) CC1(C)S[C@@H]2[C@H](NC(=O)[C@H](N)c3ccccc3)C(=O)N2[C@H]1C(=O)O [AMPICILLIN]
Select one. Lower half-life: a or b Could you answer with the label of the item you picked? b
(b: 5 min, a: 80 min)

###

System: penicillin-G acylase
RUN_DESCRIPTION: Hydrolysis half life using immobilized penicillin-G acylase
Assay type: ADME
CONDITION_SUMMARY: immobilized penicillin-G acylase
MEASUREMENT_TYPE: half-life (min)

>  <SMILES_REPRESENTATION>
C/C=C/C1=C(C(=O)O)N2C(=O)[C@@H](NC(=O)Cc3ccccc3)[C@H]2SC1

>  <half-life, min>
50

$$$$
>  <SMILES_REPRESENTATION>
CC1(C)[C@H](C(=O)O)N2C(=O)[C@@H](NC(=O)Cc3ccccc3)[C@H]2S1(=O)=O

>  <half-life, min>
50

$$$$

The reported numbers originate from ChEMBL document CHEMBL1127994.
